# ASSAY_OVERVIEW: potentiometric titration against 0.1 N NaOH with mannitol complexation (equivalence points)
# Format: physicochemical
# MEASUREMENT_CONDITIONS: aqueous GUP/boric acid solution complexed with mannitol; potentiometric titration of GUP/boric acid solutions, samples complexed with mannitol; read-out: pKa (equivalence point)
# Method: The mixture was heated to approximately 48° C. to dissolve all of the solids, and a sample for analysis taken. The temperature of the solution was then raised and maintained between 70° C. and 90° C. for 3.5 hours. Samples of the solution were analyzed by potentiometric titration every hour, and at the end of the 3.5 hour reaction period. The samples were titrated against approximately 0.1 N NaOH (standardized against a potassium hydrogen phthalate standard from NIST). […]
MEASURED_PROPERTY: pKa

Provide pKa value for the following compound: N=C(N)NC(N)=O [GUP, guanylurea phosphate] 7.25
